Experiment: In vitro cytotoxicity, Sulforhodamine B (SRB) assay
Assay type: cell-based
Conditions: human, PC-3 cells, range 80 to 0.55 μg/mL
Entries and their GI50 values follow.

Reference set (2 entries):
# MOLECULE, REPORTED PROPERTY, VALUE OBSERVED
records = [
    ("COc1ccc2occ(C3NC(=S)NC(C)=C3C(=O)NN)c(=O)c2c1 (stereo not drawn)", "GI50", "> 80 µg/mL"),
    ("COc1cccc2c1C(=O)c1c(O)c3c(c(O)c1C2=O)C[C@@](O)(C(=O)CO)C[C@@H]3O[C@H]1C[C@H](N)[C@H](O)[C@H](C)O1 [Adriamycin, reference compound]", "GI50", "0.5 µg/mL"),
]

Please look at this molecule and report its GI50: CC1=C(C(=O)NN)C(c2coc3ccc(F)cc3c2=O)NC(=O)N1 (stereo not drawn)
> 80 µg/mL
